Measured abundance fitness, listed per entry for reference.
B1: POU domain, class 3, transcription factor 4, residues 280 to 335; numbered along this chain, P49335 (parent)
chain: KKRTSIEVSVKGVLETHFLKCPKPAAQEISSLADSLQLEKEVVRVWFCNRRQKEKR

# Variants of: B1
# protocol.details: abundance fitness (aPCA) (normalised: wild type 0, dead -1); higher = more abundant; growth selection in yeast, the domain comes from the species named
# run.conditions: Homo sapiens

Record E7V , field abundance fitness: -0.362

Record Q37C , field abundance fitness: -0.198

Record E39G , field abundance fitness: -0.686

Record I6L , field abundance fitness: 0.018

Record L14A , field abundance fitness: -0.955

Further cases:
Record V42W , field abundance fitness: -0.291

Record E39V , field abundance fitness: -0.565
